Quick reference: GI50 of the listed items.
# System: A549
# assay_details: Antiproliferative activity against human A549 cells after 48 hrs by sulforhodamine B assay
# Format: functional
# condition_description: A549, 48 h

Examples with answers:
C=C1CC[C@@H]2C(C)(C)[C@@H](O)CC[C@@]2(C)[C@@H]1C[C@H]1OC(=O)C=C1C	44 µM
COc1cc([C@@H]2c3cc4c(cc3[C@@H](O[C@@H]3O[C@@H]5CO[C@@H](C)O[C@H]5[C@H](O)[C@H]3O)[C@H]3COC(=O)[C@H]23)OCO4)cc(OC)c1O [ETOPOSIDE]	0.7 µM

Moving on to the next compound.
// query Return GI50 (reported value) for this compound: CC1=CC(=O)O[C@@H]1C[C@@H]1[C@@H](C)C(=O)C[C@@H]2C(C)(C)[C@H](O)CC[C@@]12C
// result > 100 µM
